Experiment: NCI Yeast Anticancer Drug Screen. Data for the rad50 strain (AID 155);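 also: 0% = growth of vehicle-only cultures of the same strain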
Details: S. cerevisiae rad50 strain growth inhibition; at 33.0 µM; hits give high values
About 79,000 compounds went through this panel and 15% of them were active in at least one assay; those are over-represented in the sample as a whole.
Below: a set of entries, each annotated with reported growth inhibition.
Please give a number only; it is taken to be in %.

See these solved cases before continuing.
>>> print(df.to_string())
                           molecule  observed
0  CCOC(=O)/C(=C\c1ccc(F)cc1)C(C)=O        95
1         CC(C)OC(=O)NNc1cccc(Cl)c1        98

Query :: Quickly give me recorded growth inhibition for `CCCCCCCCCCCNC=O`
Result :: 29

Query :: Return growth inhibition (reported value) for this molecule: `CCC(C)(C)c1ccc(Oc2ccccc2)c(N)c1`
Result :: 98

###

Assay: NCI Yeast Anticancer Drug Screen. Data for the sgs1 strain (AID 173);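 also: 0% = growth of vehicle-only control cultures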
Settings: S. cerevisiae sgs1 mutant, at 100.0 µM, hits give high values
About 79,000 compounds went through this panel and 15% of them were active in at least one assay; those are over-represented in the sample as a whole.
readoutName: growth inhibition (%)
Please give a number only; it is taken to be in %.

Example molecules with recorded growth inhibition:
>>> print(df.to_string())
                    linenotation  readingunit  observed
0  O=C(C#Cc1ccccc1)/C=C/c1ccccc1            %        95
1    CCCCCCC=C(C(=O)OCC)C(=O)OCC            %        30

# input for lookup
Query :: Specify measured growth inhibition for `CCN(CC)CCC(=O)Nc1ccc2sc3ccccc3c(=O)c2n1` .
Result :: 26

###

Assay: NCI Yeast Anticancer Drug Screen. Data for the wt2 strain (AID 169);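 also: 0% = growth of vehicle-treated yeast cultures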
Conditions: S. cerevisiae wt2 strain growth inhibition; at 1.2 µM; hits give high values
The panel holds about 79,000 compounds, 15% with a hit somewhere; the sample as a whole holds those more often.
readoutName: growth inhibition (%)
Express your answer in %, writing the number without its unit.

Solved entries (count: 3):
In [3]: df
Out[3]:
                                   compound  observed
0  CC1(C)OC(=O)C(=Cc2ccc([N+](=O)[O-])s2)C(=O)O1         0
1  COc1ccc(C(C)c2cc3c(cc2OCC(C)=O)OCO3)cc1 (stereo not drawn)        -3
2         O=C(/N=N/C(=O)Oc1ccccc1)Oc1ccccc1       -46

Query :: Provide measured growth inhibition value, entry: BrC1C2CCC3OC3C12 (stereo not drawn)
Result :: -1

Query :: Give the measured growth inhibition for O=C1CSC(c2ccccc2)N1c1ccc(-c2ccc(-n3c(-c4ccccc4)nc4ccccc4c3=O)cc2)cc1 (stereo not drawn)
Result :: 0

Query :: Name the recorded growth inhibition of the compound listed here: `O=S(=O)(NNc1ccccc1)c1ccccc1`
Result :: -2

Query :: Complete the entry with growth inhibition for `O=C(c1ccccc1)[C@H]1Nc2ccc(Cl)cc2[C@H]2OCCC[C@@H]12`
Result :: -15

###

A collection of compounds and their measured growth inhibition
Experiment: NCI Yeast Anticancer Drug Screen. Data for the wt1 strain (AID 149);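 also: 0% = growth of vehicle-treated wt1 cultures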
Conditions: S. cerevisiae wt1 strain (SPY 50644) growth inhibition; at 1.2 µM; hits give high values
Experimental: Growth inhibition of yeast strains with defined genetic alterations is measured as a screen for potential anti-cancer activity. Selected strains with alterations in DNA damage repair or cell cycle control were exposed to compounds and growth inhibition was measured relative to vehicle treated controls. The strain used in this assay is wt1
This is part of a sample that, as a whole, favours compounds with a hit. Of some 79,000 tested, about 15% had one in any assay.
All answers are understood in %, so give the number only.

Consider the worked cases shown below.
In [3]: df
Out[3]:
                                   compound  readingunit  observed
0           CC(C)OC(=O)NNc1c(Cl)cc(Cl)cc1Cl            %        -2
1  CCC[CH2][Sn]([CH2]CCC)([CH2]CCC)/[C](=C/[Si](C)(C)c1ccccc1)c1ccc2c(c1)OCO2            %         3
2  COc1ccc2nc3cccc([N+](=O)[O-])c3c(NCCNCCN(C)C)c2c1            %        -3
3     CCN(CC)CC(=O)c1ccc2cc(Cl)c3ccccc3c2c1            %         6
4             CN(N=O)C(=O)Nc1ccc(C(=O)O)cc1            %        -2
5  Cc1ccc([N+](=O)[O-])c2c(NCCC[N+](C)(C)[O-])c3ccccc3nc12            %        -5
6  CC(=O)CC(c1ccccc1)c1c(O)c2ccccc2oc1=O (stereo not given)            %       -10
7          O=c1c2ccccc2nc(-c2ccc(Cl)cc2)n1O            %        61
8  O=S(=O)(NC1CCCC(c2ccccc2)C1)c1ccccc1 (stereo not given)            %        -1
9   CN(C)CCNC(=Cc1ccc2ccccc2[n+]1C)NCCN(C)C            %         0

Query :: Quote growth inhibition reported for `Cc1cccc2c(Cl)c3cccc(C)c3nc12` please.
Result :: -2

Query :: Supply recorded growth inhibition for O=C(NNc1ccccc1)C(CCCCNS(=O)(=O)Cc1ccccc1)NS(=O)(=O)Cc1ccccc1 (stereo not given) here.
Result :: 4

Query :: Consider the compound `NC(=O)NC1C(c2ccccc2)=C1c1ccccc1` and give its recorded growth inhibition.
Result :: -2

Query :: Give recorded growth inhibition. `NC(=S)N1N=C2c3ccccc3CC[C@H]2[C@@H]1c1ccc(Cl)cc1`
Result :: 11

Query :: Give reported growth inhibition value for `c1c[nH]c(CN2CCN(Cc3ncc[nH]3)CC2)n1`
Result :: -1

###

Test: NCI Yeast Anticancer Drug Screen. Data for the cln2 rad14 strain (AID 165);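 also: 0% = growth equal to vehicle treated cultures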
Conditions: S. cerevisiae cln2 rad14 strain, at 50.0 µM, hits give high values
The panel holds about 79,000 compounds, 15% with a hit somewhere; the sample as a whole holds those more often.
Decide using growth inhibition: a value greater than or equal to 80% is true (1), a smaller one is false (0).

Query :: Assess whether reported growth inhibition for `O=C(NC(N1CCN(c2cc3c(cc2F)c(=O)c(C(=O)O)cn3C2CC2)CC1)(C(F)(F)F)C(F)(F)F)c1ccccc1` sits at 80% or higher.
Result :: false (0)

Query :: Is growth inhibition for `CCC(/C=C/c1ccccc1)=N\Nc1ccc(Cl)cc1` at or above 80%?
Result :: true (1)

Query :: Dear colleague, could you confirm whether `O=C(O)c1c2ccc(Cl)cc2nc2[nH]c(=O)[nH]c(=O)c12` has growth inhibition at or above 80%?
Result :: false (0)

Query :: Check the entry `Cc1cccc2c(NCCCN(C)C)c3c([N+](=O)[O-])ccc(C)c3nc12` : does growth inhibition equal or exceed 80%?
Result :: true (1)

Query :: Say whether `CC1=NN(C(=O)c2ccccc2O)C(=O)/C1=C/c1ccco1` shows growth inhibition of 80% or more.
Result :: true (1)

###

Experiment: NCI Yeast Anticancer Drug Screen. Data for the rad18 strain (AID 177)
Details: S. cerevisiae rad18 mutant growth inhibition; at 33.0 µM; hits give high values
This is part of a sample that, as a whole, favours compounds with a hit. Of some 79,000 tested, about 15% had one in any assay.
readoutName: growth inhibition (%)
Field: numeric (%). Do not append units.

// known answers, use as guide
molecule	growth inhibition / %
Cc1nc2sc3c(c2c(=O)o1)CCCC3	-15
O=C(O)c1cc2c(cc1S(=O)(=O)O)C1C(C3C2C2(Cl)C(Cl)=C(Cl)C3(Cl)C2(Cl)Cl)C2(Cl)C(Cl)=C(Cl)C1(Cl)C2(Cl)Cl (stereo not given)	82
CC1=NN(C(=O)CC(=O)NC(=O)/C=C\c2ccccc2)C(=O)C1N=Nc1ccc([N+](=O)[O-])cc1 (stereo not given)	83
CC(C)OC(=O)NNc1cc(Cl)ccc1Cl	62
CC1=CC(=O)C=CC1=Nc1cc(Cl)c(O)c(Cl)c1	60

Query :: Please supply the value of reported growth inhibition for the item O=NC1c2cccc3cccc(c23)C1N=O (stereo not given)
Result :: 95

Query :: Tell me its growth inhibition given `CS(=O)(=O)O.[Ag]` as the entry.
Result :: 99

Query :: Given the molecule `COC(=O)c1ccccc1N=NNc1cccc(SC)c1` , write its reported growth inhibition.
Result :: 94

Query :: Respond only with growth inhibition recorded for C[C@H](CCC1=NC(C)(C)CO1)C1CCC2[C@@H]3C(O)C[C@@H]4CC(O)CC[C@]4(C)C3CC[C@@]21C (stereo not given in full)
Result :: 96
